Tested on: CYPSE (Flatsedge)
Assay Method Text: Preemergence weed control under flooded paddy conditions
Format: in vivo, Cyperus serotinus
Measurement Setup: 0.0313 kg/ha, rated 3-4 weeks after treatment
Recorded Metric: CYPSE herbicidal effect rating

molecule="C=CCOC(=O)CC1SC(=Nc2cc(-n3c(=O)cc(C(F)(F)F)n(C)c3=O)c(F)cc2Cl)N(CC=C)C1=O (centres unmarked) [Compound 65]" test_system="CYPSE (Flatsedge)" value_observed=0.0
molecule="C[C@@H](C(=O)OC(C)(C)C)N1C(=O)CSC1=Nc1cc(-n2c(=O)cc(C(F)(F)F)n(C)c2=O)c(F)cc1Cl [Compound 75]" test_system="CYPSE (Flatsedge)" value_observed=2.0
molecule="CCOC(=O)CN1C(=O)C(CC(=O)Nc2ccccc2)SC1=Nc1cc(-n2c(=O)cc(C(F)(F)F)n(C)c2=O)c(F)cc1Cl (centres unmarked) [Compound 68]" test_system="CYPSE (Flatsedge)" value_observed=0.0
molecule="COC(=O)C(Cc1ccc(Cl)cc1)N1C(=O)CSC1=Nc1cc(-n2c(=O)cc(C(F)(F)F)n(C)c2=O)c(F)cc1Cl (racemic) [Compound 77]" test_system="CYPSE (Flatsedge)" value_observed=0.0
molecule="C#CCOC(=O)CC1SC(=Nc2cc(-n3c(=O)cc(C(F)(F)F)n(C)c3=O)c(F)cc2Cl)N(C)C1=O (centres unmarked) [Compound 90]" test_system="CYPSE (Flatsedge)" value_observed=0.0

###

Tested on: ZEAMX (Corn, Field)
Assay Method Text: Postemergence herbicidal evaluation
Type: in vivo, Zea mays
Measurement Setup: postemergence, rate 0.0313 kg/ha
Recorded Metric: Herbicidal rating ZEAMX

compound=Cn1c(C(F)(F)F)cc(=O)n(-c2cc(N=C3SCC(=O)N3Cc3ccc(C(F)(F)F)cc3)c(Cl)cc2F)c1=O value_observed=4.5
compound=Cc1ccc(CN2C(=O)CSC2=Nc2cc(-n3c(=O)cc(C(F)(F)F)n(C)c3=O)c(F)cc2Cl)cc1Cl value_observed=4.5
compound="CN1C(=O)C(CC(=O)NS(=O)(=O)c2ccccc2)SC1=Nc1cc(-n2c(=O)cc(C(F)(F)F)n(C)c2=O)c(F)cc1Cl (stereo not drawn)" value_observed=5.0

###

// reported Herbicidal rating MOOVA per item
Test system: MOOVA (Monochoria)
Assay Method Text: Preemergence weed control under flooded paddy conditions
Format: in vivo, Monochoria vaginalis
Measurement Setup: 0.1250 kg/ha, rated 3-4 weeks after treatment
Recorded Metric: Herbicidal rating MOOVA

compound="CCOC(=O)CN1C(=O)C(CC(N)=O)S/C1=N/c1cc(-n2c(=O)cc(C(F)(F)F)n(C)c2=O)c(F)cc1Cl (centres unmarked)" recorded_metric="Herbicidal rating MOOVA" value_observed=9.0
compound=COC(=O)CCCN1C(=O)CSC1=Nc1cc(-n2c(=O)cc(C(F)(F)F)n(C)c2=O)c(F)cc1Cl recorded_metric="Herbicidal rating MOOVA" value_observed=0.0
compound=CCOC(=O)CN1C(=O)C2(CC2)SC1=Nc1cc(-n2c(=O)cc(C(F)(F)F)n(C)c2=O)c(F)cc1Cl recorded_metric="Herbicidal rating MOOVA" value_observed=9.0
compound="CCC1SC(=Nc2cc(N3C(=O)C4=C(CCCC4)C3=O)c(F)cc2Cl)N(C)C1=O (centres unmarked)" recorded_metric="Herbicidal rating MOOVA" value_observed=8.0
compound=CCOC(=O)CN1C(=O)CS(=O)(=O)C1=Nc1cc(-n2c(=O)cc(C(F)(F)F)n(C)c2=O)c(F)cc1Cl recorded_metric="Herbicidal rating MOOVA" value_observed=6.0
compound="CCOC(=O)CN1C(=O)C(Cc2ccccc2)SC1=Nc1cc(-n2c(=O)cc(C(F)(F)F)n(C)c2=O)c(F)cc1Cl (centres unmarked)" recorded_metric="Herbicidal rating MOOVA" value_observed=9.0
compound=CCOC(=O)/C=C1/S/C(=N/c2cc(-n3c(=O)cc(C(F)(F)F)n(C)c3=O)c(F)cc2Cl)N(CC(=O)OCC)C1=O recorded_metric="Herbicidal rating MOOVA" value_observed=4.5
compound=Cn1c(C(F)(F)F)cc(=O)n(-c2cc(N=C3SCC(=O)N3Cc3ccccc3)c(Cl)cc2F)c1=O recorded_metric="Herbicidal rating MOOVA" value_observed=9.0
